Documented kon across a set of binders
- Test Target: T1, recombinant cynomolgus monkey PD-L1 with a C-terminal myc-myc-hexahistidine tag (cynomolgus monkey (Macaca fascicularis))
- T1 construct: also called MfPD-L1-MMH; MfPD-L1-MMH Monomer
- T1 sequence (chain, as listed by the source limits assumed): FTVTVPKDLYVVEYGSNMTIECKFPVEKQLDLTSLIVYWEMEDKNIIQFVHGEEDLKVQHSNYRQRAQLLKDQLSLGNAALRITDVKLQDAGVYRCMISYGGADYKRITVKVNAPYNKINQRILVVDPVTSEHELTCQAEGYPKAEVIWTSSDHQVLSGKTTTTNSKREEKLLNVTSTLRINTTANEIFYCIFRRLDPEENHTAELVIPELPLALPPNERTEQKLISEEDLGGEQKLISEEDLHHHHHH
- Method Summary: SPR (Biacore), mAb captured, 25C
The response must be a number in M⁻¹ s⁻¹ with no trailing unit.

Field: example entries. Status: answers known.
binder="H2aM8314N (antibody, mouse IgG2, V domains shown, also called H2M8314N) VH: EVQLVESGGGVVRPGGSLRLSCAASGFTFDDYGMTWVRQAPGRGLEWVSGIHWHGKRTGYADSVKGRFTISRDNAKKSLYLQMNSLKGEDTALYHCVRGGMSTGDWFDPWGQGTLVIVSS VL: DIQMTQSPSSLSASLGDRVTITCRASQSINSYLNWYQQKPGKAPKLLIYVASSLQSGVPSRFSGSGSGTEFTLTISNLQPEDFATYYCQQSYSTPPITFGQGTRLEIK" attribute_measured=kon scale_unit="M⁻¹ s⁻¹" endpoint_value=966000
binder="H2aM8317N (antibody, mouse IgG2, V domains shown, also called H2M8317N) VH: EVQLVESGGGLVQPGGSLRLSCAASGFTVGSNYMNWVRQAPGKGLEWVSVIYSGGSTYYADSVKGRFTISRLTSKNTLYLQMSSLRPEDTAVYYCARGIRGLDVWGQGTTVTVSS VL: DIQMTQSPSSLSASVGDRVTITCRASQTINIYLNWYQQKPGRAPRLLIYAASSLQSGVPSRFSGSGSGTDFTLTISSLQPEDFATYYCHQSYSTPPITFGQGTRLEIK" attribute_measured=kon scale_unit="M⁻¹ s⁻¹" endpoint_value=106000
binder="H2aM8323N (antibody, mouse IgG2, V domains shown, also called H2M8323N) VH: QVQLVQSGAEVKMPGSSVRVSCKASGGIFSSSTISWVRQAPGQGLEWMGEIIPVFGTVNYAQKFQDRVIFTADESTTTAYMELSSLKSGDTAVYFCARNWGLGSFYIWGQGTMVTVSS VL: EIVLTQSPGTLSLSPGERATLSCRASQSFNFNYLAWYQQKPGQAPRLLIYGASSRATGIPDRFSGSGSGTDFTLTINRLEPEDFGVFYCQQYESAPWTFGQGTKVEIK" attribute_measured=kon scale_unit="M⁻¹ s⁻¹" endpoint_value=547000
binder="H1H9336P (antibody, human IgG1, V domains shown) VH: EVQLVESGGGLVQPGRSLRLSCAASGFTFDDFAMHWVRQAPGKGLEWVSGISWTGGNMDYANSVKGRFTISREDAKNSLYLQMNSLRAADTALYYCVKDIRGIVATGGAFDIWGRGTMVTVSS VL: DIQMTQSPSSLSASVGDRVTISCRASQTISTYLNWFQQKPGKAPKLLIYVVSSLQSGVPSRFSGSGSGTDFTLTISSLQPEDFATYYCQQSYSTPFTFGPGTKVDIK" attribute_measured=kon scale_unit="M⁻¹ s⁻¹" endpoint_value=679000
binder="H2aM8321N (antibody, mouse IgG2, V domains shown, also called H2M8321N) VH: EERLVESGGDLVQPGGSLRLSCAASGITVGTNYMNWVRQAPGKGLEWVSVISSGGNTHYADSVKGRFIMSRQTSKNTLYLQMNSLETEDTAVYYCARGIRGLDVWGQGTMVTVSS VL: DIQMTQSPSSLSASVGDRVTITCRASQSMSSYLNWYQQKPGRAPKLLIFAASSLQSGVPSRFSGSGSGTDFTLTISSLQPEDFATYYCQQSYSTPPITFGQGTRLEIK" attribute_measured=kon scale_unit="M⁻¹ s⁻¹" endpoint_value=134000
binder="H2aM8310N (antibody, mouse IgG2, V domains shown, also called H2M8310N) VH: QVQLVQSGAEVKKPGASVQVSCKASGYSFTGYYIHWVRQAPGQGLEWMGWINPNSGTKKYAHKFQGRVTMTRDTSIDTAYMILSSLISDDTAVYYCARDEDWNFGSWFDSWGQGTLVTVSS VL: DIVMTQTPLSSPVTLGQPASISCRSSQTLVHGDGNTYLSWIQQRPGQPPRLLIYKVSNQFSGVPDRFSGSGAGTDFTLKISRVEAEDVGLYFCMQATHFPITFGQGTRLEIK" attribute_measured=kon scale_unit="M⁻¹ s⁻¹" endpoint_value=103000

Let us move to another entry and its kon.
Can you look up the measured kon of H1H9329P (antibody, human IgG1, V domains shown) VH: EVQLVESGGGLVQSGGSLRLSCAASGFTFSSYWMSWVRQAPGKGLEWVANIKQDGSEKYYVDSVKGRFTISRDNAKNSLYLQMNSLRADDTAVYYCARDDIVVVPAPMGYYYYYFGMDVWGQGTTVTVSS VL: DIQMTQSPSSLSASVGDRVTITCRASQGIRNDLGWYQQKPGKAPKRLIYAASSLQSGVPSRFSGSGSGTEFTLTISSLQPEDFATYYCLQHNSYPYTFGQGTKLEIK for me? 1.76e+06

Values compiled from patent US20210380702A1.
